B1: Osa-1-4 twister ribozyme (parent)
chain: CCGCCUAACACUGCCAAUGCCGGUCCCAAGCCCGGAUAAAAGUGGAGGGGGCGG

Variants of: B1
Assay: self-cleavage, relative activity (ratio to wild type); higher = more cleavage; co-transcriptional
Consider the following variants; for each one, report its self-cleavage.
Give bare numbers.

Parameters: items (list). Returns: self-cleavage for each item.
1. A8C C26G
2. C52U G23C
3. A36C G45U
4. A36U C27A
5. C14A C20G
6. C14U G47U
7. C27A C32A
8. G34U G35A

1: 0.02; 2: 0.06; 3: 0.05; 4: 0.29; 5: 0.03; 6: 0.06; 7: 0.09; 8: 0.6
